Target: Glutathione peroxidase 1 (Homo sapiens)
Assay: Primary qHTS Assay for Inhibitors of Recombinant Selenoprotein Glutathione Peroxidase 1 (GPX1) (AID 1845191); further: nearly all actives have a fitted effect of over 65% in size
Conditions: recombinant GPX1, GR-coupled NADPH fluorescence, 15 min; series mostly up to 48.8 µM
Inconclusive results are not listed. Activity calls are given as the source filed them. The call rests on the fitted dose curve; in most records, active means well fitted inhibition curve with a large enough effect; inconclusive means small, poorly fitted or top-dose-only effect; inactive means flat fitted curve, though single readings scatter.
readoutType: outcome

compound	testedSystem	outcome
Cc1nc(C)c(CN2CCN(C(c3ccc(F)cc3)c3ccc(F)cc3)CC2)nc1C	Glutathione peroxidase 1 (Homo sapiens)	inactive
NS(=O)(=O)c1ccc(S(=O)(=O)Nc2cccc3c(Cl)c[nH]c23)cc1	Glutathione peroxidase 1 (Homo sapiens)	inactive
Cc1ccc(-c2nc(N)nc3c2nnn3Cc2cccc(CO[C@H]3CCOC3)n2)o1	Glutathione peroxidase 1 (Homo sapiens)	inactive
CS[C@H]1SC[C@@H]2C(=O)N(C)[C@H](C(C)C)C(=O)OC[C@H](NC(=O)c3cnc4ccccc4n3)C(=O)N[C@H](C)C(=O)N(C)[C@H]1C(=O)N(C)[C@H](C(C)C)C(=O)OC[C@H](NC(=O)c1cnc3ccccc3n1)C(=O)N[C@H](C)C(=O)N2C	Glutathione peroxidase 1 (Homo sapiens)	inactive
Cc1nc2cccc(N)c2c(=O)n1C1CCC(=O)NC1=O (configuration not stated)	Glutathione peroxidase 1 (Homo sapiens)	inactive
CN[C@@H](C)C(=O)N[C@H](C(=O)N1CCC[C@H]1C(=O)Nc1sc(-c2ncco2)nc1-c1ccccc1)C1CCCCC1	Glutathione peroxidase 1 (Homo sapiens)	inactive

Ask: What measured outcome goes with CN1CCN(c2ccc(Nc3ncc4cc(C#N)c(=O)n(C5CCCC5)c4n3)cc2)CC1 ?
Reply: inactive

Ask: Next compound: O=C(Nc1cnn2ccc(N3CCC[C@@H]3c3cc(F)ccc3F)nc12)N1CC[C@H](O)C1
Reply: inactive

Ask: Next compound: O=C1CCc2cc(S(=O)(=O)Nc3cccc(Cl)c3)ccc2N1
Reply: inactive

Ask: Next compound: CN(C)CCNC(=O)NC[C@H]1CC[C@@H]2[C@H](O1)c1cc(C(F)(F)F)ccc1N[C@H]2c1ccccc1
Reply: inactive

Ask: Next compound: Cc1ccc(S(=O)(=O)Nc2cc(-c3ccc(C#N)s3)ccc2C)cc1
Reply: inactive

Ask: Next compound: O=c1cc(N2CCOCC2)oc2c(-c3ccc4c(c3)OCCO4)csc12
Reply: inactive

Ask: Next compound: C=CC(=O)N1CCC[C@H](n2c(=O)n(-c3ccc(Oc4ccccc4)cc3)c3c(N)ncnc32)C1
Reply: inactive

Ask: Next compound: COc1cc(C(=O)NC(N)=Nc2ccc(C)c(NC(=O)c3ccc(-c4ccccc4)cc3)c2)cc(OC)c1OC
Reply: inactive

Ask: Next compound: C[C@@H](Oc1cc(C(=O)Nc2ccc(C(=O)N3CCN(C)CC3)cc2)nnc1N)c1c(Cl)ccc(F)c1Cl
Reply: inactive

Ask: Next compound: Cc1c(C(=O)Nc2ccc(Oc3ccnc4[nH]cc(-c5ccccc5)c34)c(F)c2)c(=O)n(-c2ccc(F)cc2)n1C
Reply: inactive

Ask: Next compound: C=CC(=O)N1CCC(C2CCNc3c(C(N)=O)c(-c4ccc(Oc5ccccc5)cc4)nn32)CC1 (configuration not stated)
Reply: inactive

----------
Assay: qHTS for differential inhibitors of proliferation of Plasmodium falciparum line Dd2 (AID 1882); further: nearly all actives have a fitted effect of over 65% in size; further: potency means the concentration at half of the fitted maximal effect
Conditions: Plasmodium falciparum Dd2 proliferation inhibition; series mostly up to 28.7 µM
Results filed as inconclusive are left out. The source made the active and inactive calls. Calls come from the whole dose curve; as a rule, active = well fitted inhibition curve with a large enough effect; inconclusive = small, poorly fitted or top-dose-only effect; inactive = flat fitted curve, though single readings scatter.
readoutType: Potency

Below, 4 compounds whose answers are already recorded.
compound	recordedValue
OC[C@H]1O[C@@H](n2cnc3c(NC4CCCC4)ncnc32)[C@H](O)[C@H]1O	inactive
CNC(=O)[C@H]1O[C@@H](n2cnc3c(NCc4ccc(N)cc4)ncnc32)[C@H](O)[C@H]1O	inactive
CNc1ncnc2c1ncn2[C@@H]1O[C@H](CO)[C@H](O)[C@H]1O	inactive
CCSC(N)=Nc1ccc(C(F)(F)F)cc1	inactive

Ask: What measured Potency goes with O=C(Cc1ccc(Cl)c(Cl)c1)OCCN1CCCC1 ?
Reply: inactive

Ask: Next compound: O=C(O)CC[C@H](NC(=O)c1ccccc1C(=O)O)C(=O)O
Reply: inactive

Ask: Next compound: CN1CCc2cc(Cl)c(O)cc2C(c2ccccc2)C1 (stereo not given)
Reply: 8.91 µM (active)

Ask: Next compound: Nc1ncnc2c1ncn2[C@@H]1O[C@H](CO)[C@H](O)[C@H]1O
Reply: inactive

Ask: Next compound: CNC(=O)[C@H]1O[C@@H](n2cnc3c(NCc4cccc(I)c4)ncnc32)[C@H](O)[C@H]1O
Reply: inactive

Ask: Next compound: N[C@H](Cc1ccc(O)c(O)c1)C(=O)O
Reply: inactive

Ask: Next compound: N=C1Sc2ccccc2C2=NCCCN12
Reply: inactive

Ask: Next compound: COC(=O)c1c(-c2cc(OC)c(OC)c(OC)c2)c2ccc(OCc3ccccn3)cc2c(=O)n1-c1ccc(N)cc1
Reply: 2 µM (active)

Ask: Next compound: CN(CCOc1ccc(C[C@H](Nc2ccccc2C(=O)c2ccccc2)C(=O)O)cc1)c1ccccn1
Reply: inactive

Ask: Next compound: CC(=O)[C@@]1(O)CC[C@H]2C3CCC4=CC(=O)CC[C@]4(C)C3CC[C@@]21C (stereo not given in full)
Reply: inactive

Ask: Next compound: C[C@H](Cc1ccccc1)Nc1ncnc2c1ncn2[C@@H]1O[C@H](CO)[C@H](O)[C@H]1O
Reply: inactive

Ask: Next compound: NC(=S)c1ccc[n+]([C@@H]2O[C@@H](COP(=O)([O-])OP(=O)(O)OC[C@H]3O[C@@H](n4cnc5c(N)ncnc54)[C@H](OP(=O)(O)O)[C@H]3O)C(O)C2O)c1 (stereo not given in full)
Reply: inactive

Ask: Next compound: Nc1nc2c(nc(Br)n2C2O[C@H]3COP(=O)(O)O[C@@H]3C2O)c(=O)[nH]1 (stereo not given in full)
Reply: 7.94 µM (active)

Ask: Next compound: NCC1OC(O[C@@H]2[C@H](O)[C@@H](OC3C(O)C(N)CC(N)C3OC3OC(CO)C(O)C(O)C3N)O[C@@H]2CO)C(N)C(O)C1O (stereo not given in full)
Reply: inactive

Ask: Next compound: NCCC(=O)NCCc1cnc[nH]1
Reply: inactive

Ask: Next compound: COc1c2c(nc3ccccc13)OC(C(C)(O)CO)C2 (stereo not given)
Reply: inactive

Ask: Next compound: CCCCCCCCCCCCCCC/C=C/[C@@H](O)[C@H](NC(=O)CCCCCCCCCCCCC)OC (tested in a mixture with another compound)
Reply: inactive

Ask: Next compound: CC(O)[C@@H](O)[C@H]1CNc2nc(N)[nH]c(=O)c2N1 (stereo not given in full)
Reply: inactive

Ask: Next compound: CN1C2CCC1CC(NC(=O)c1nn(C)c3ccccc13)C2 (stereo not given)
Reply: inactive

Ask: Next compound: CSc1nc(N)c2ncn([C@@H]3O[C@H](COP(=O)(O)OP(=O)(O)O)[C@H](O)[C@H]3O)c2n1
Reply: inactive

Ask: Next compound: C[C@]12CCC(=O)C=C1CC[C@@H]1C2[C@@H](O)C[C@@]2(C)[C@H]1CC[C@]2(O)C(=O)CO (stereo not given in full)
Reply: inactive

Ask: Next compound: OC[C@H]1O[C@@H](n2cnc3c(Nc4ccccc4)ncnc32)[C@H](O)[C@H]1O
Reply: inactive

Ask: Next compound: NCCNC(=O)c1ccc(Cl)cc1
Reply: inactive

----------
Experiment: qHTS drug screen for cell cycle checkpoint inhibitors in PARPi-resistant BRCA-mutant ovarian cancer cell lines. (AID 1963452)
Details: PEO1/OlaR viability, CellTiter-Glo luminescence, 96 h; measured here: PEO1 parental Z-AUC; stronger effect = lower value
Exam item: assign yes (1) to entries whose Z-AUC is below -0.6 and no (0) to entries at or above -0.6. Note that a value of exactly -0.6 receives no (0).

Ask: Is the reported Z-AUC for C[C@@H]1[C@H](O)[C@@H](C)/C=C/C=C/C=C/C=C/C=C/C=C/C=C/[C@H](O[C@@H]2O[C@H](C)[C@@H](O)[C@H](N)[C@@H]2O)C[C@@H]2O[C@](O)(C[C@@H](O)C[C@@H](O)[C@H](O)CC[C@@H](O)C[C@@H](O)CC(=O)O[C@H]1C)C[C@H](O)[C@H]2C(=O)O strictly below -0.6?
Reply: no (0)

Ask: Next molecule: CC[C@H]1OC(=O)[C@H](C)C(=O)[C@H](C)[C@@H](O[C@H]2O[C@H](C)C[C@H](N(C)C)[C@H]2O)[C@](C)(OC)C[C@@H](C)C(=O)[C@H](C)[C@H]2N(CCCCn3cnc(-c4cccnc4)c3)C(=O)O[C@]12C
Reply: no (0)

Ask: Next molecule: CCc1cnn2c(NCc3ccc[n+]([O-])c3)cc(N3CCCC[C@H]3CCO)nc12
Reply: yes (1)

Ask: Next molecule: O=C(CCc1ccc(O)cc1)c1c(O)cc(O)cc1O[C@@H]1O[C@H](CO)[C@@H](O)[C@H](O)[C@H]1O
Reply: no (0)

Ask: Next molecule: COCCOC(=O)N1CCN(S(=O)(=O)c2cc(F)c(Oc3ccc(Cl)cc3)c(F)c2)C(C(=O)NO)C1 (stereo unspecified)
Reply: yes (1)
